Target: human mAChR M4 (Homo sapiens)
Sequence (P08173 1-479): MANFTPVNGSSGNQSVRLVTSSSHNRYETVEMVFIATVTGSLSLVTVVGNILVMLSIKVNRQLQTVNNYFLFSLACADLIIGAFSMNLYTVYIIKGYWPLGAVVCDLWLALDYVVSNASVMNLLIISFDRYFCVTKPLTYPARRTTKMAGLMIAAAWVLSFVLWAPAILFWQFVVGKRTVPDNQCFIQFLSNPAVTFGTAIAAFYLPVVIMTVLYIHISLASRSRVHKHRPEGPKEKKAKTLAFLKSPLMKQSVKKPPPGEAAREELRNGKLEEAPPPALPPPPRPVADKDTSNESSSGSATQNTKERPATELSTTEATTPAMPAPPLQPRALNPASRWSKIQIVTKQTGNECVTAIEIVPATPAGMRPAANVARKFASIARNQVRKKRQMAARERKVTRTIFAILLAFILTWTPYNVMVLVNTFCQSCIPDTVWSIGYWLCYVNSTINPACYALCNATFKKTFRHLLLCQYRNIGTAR
Assay: mAChR M4 cell-based functional assay (calcium flux), human M4
Conditions: Human M4 EC50 (nM), Table 10; calcium flux, PAM activity with EC20 acetylcholine
Counter-ions that a name gives are not always drawn.
experimental endpoint: EC50 (nM)

Previously resolved entries follow.
Cc1nnc2sc3c(NCc4ccc(F)c(C(=O)NC(C)C(C)(C)CO)c4)ncnc3c2c1C (centres unmarked); 794
Cc1c(Cl)nnc2sc3c(N4CCCC4)ncnc3c12; 55.5
Cc1nnc2sc3c(NCc4ccc(F)c(C(=O)NC5CCC5)c4)ncnc3c2c1C; 570
Cc1cc(C)c2c(n1)sc1c(NC3CCC3)ncnc12; 359
Cc1nnc2sc3c(NC4CCN(c5cccc(F)c5F)C4)ncnc3c2c1C (centres unmarked); 3120
Cc1cc(C)c2c(n1)sc1c(NCc3cnc(C)nc3)ncnc12; 1400
Cc1c(Cl)cnc2sc3c(NCc4ccc5c(c4)COC5)ncnc3c12; 5580

1. Cc1nnc2sc3c(N4CC(C)(N)C4)ncnc3c2c1C [Compound 98, dihydrochloride]
2. Cc1cc(C)c2c(n1)sc1c(NC3CN(c4ncc(C(F)(F)F)cn4)C3)ncnc12
3. CCNc1ncnc2c1oc1nc(C)c(Cl)c(C)c12 [Compound 287, hydrochloride]
4. Cc1nnc2sc3c(NCc4ccc(C(C)(C)O)c(Cl)c4)ncnc3c2c1C
Please list these in order of increasing EC50. Thank you! Enter labels, ranked according to the request.
4, 3, 1, 2

* * *

molecular target: human mAChR M4 (Homo sapiens, UniProt P08173); test: mAChR M4 cell-based functional assay (calcium flux), human M4; conditions: Table 10; % ACh maximum at 30 μM
Structures can show the parent of a compound that is named as a salt.
experimental endpoint: Emax (%)

Example cases with answers are listed next.
Cc1nc2sc3c(NC4CN(c5ncc(F)cn5)C4)ncnc3c2c(C)c1Cl [Compound 263, hydrochloride]; 72.6
Cc1c(Cl)cnc2sc3c(NCc4ccc5c(c4)COC5)ncnc3c12; 56.1
Cc1cc(C)c2c(n1)sc1c(N3CC(c4ccncc4)C3)ncnc12; 66.5
Cc1nc2sc3c(NCC4CCOC4)ncnc3c2c(C)c1Cl (stereo not shown) [Compound 273, dihydrochloride]; 59.5
Cc1nnc2oc3c(NCc4ccc(C(C)(O)C(F)(F)F)cc4)ncnc3c2c1C (stereo not shown); 70.2

A. Cc1nnc2sc3c(NCc4ccc(C(=O)N5CCCC5)cc4)ncnc3c2c1C
B. Cc1c(Cl)cnc2sc3c(N4CCC(F)(F)C4)ncnc3c12
# return whichever of A and B has the smaller Emax Selection: enter the item's label.
B

* * *

Biological target: human mAChR M4 (Homo sapiens)
Sequence (P08173 1-479): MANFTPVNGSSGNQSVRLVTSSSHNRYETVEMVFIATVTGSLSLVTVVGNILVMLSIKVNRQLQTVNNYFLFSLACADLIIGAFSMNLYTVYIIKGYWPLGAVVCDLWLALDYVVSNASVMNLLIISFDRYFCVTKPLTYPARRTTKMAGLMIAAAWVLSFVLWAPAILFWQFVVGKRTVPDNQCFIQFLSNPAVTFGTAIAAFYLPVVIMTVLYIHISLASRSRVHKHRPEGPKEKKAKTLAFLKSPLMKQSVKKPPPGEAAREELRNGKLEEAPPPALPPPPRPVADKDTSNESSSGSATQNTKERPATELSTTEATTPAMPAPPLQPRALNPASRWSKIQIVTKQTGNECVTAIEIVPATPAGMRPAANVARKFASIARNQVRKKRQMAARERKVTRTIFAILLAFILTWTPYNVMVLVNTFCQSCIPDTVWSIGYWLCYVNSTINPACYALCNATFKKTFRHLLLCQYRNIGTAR
Assay: mAChR M4 cell-based functional assay (calcium flux), human M4
Settings: Table 11; % ACh maximum at 30 μM
Where a name gives a salt, the structure may show the parent alone.
experimental endpoint: Emax (%)

Consider the following illustrative entries.
Cc1nnc2sc3c(NCc4ccc(-c5nccs5)cc4)ncnc3c2c1C; 64.9
[2H]C([2H])(Nc1ncnc2c1sc1nnc(C)c(C)c12)c1ccc(C(C)(C)O)cc1; 100
Cc1nnc2sc3c(N4CC(Oc5cnccn5)C4)ncnc3c2c1C [Compound 350, dihydrochloride]; 78.1

P. Cc1cc(CNc2ncnc3c2sc2nnc(C)c(C)c23)ccc1C(C)(C)O
Q. Cc1nnc2sc3c(N4CCC(Oc5ccnc(Cl)c5)CC4)ncnc3c2c1C
Field: lower Emax | Options: P / Q Mark your answer with the label of the selected entry.
Q
(Q: 56.8%, P: 90.6%)

* * *

molecular target: human mAChR M4 (Homo sapiens, UniProt P08173); assay: mAChR M4 cell-based functional assay (calcium flux), human M4; settings: Table 10; % ACh maximum at 30 μM
experimental endpoint: Emax (%)

Cc1nnc2sc3c(N4CC(N)C4)ncnc3c2c1C; 61.4
COC(=O)C12CC(CNc3ncnc4c3sc3nnc(C)c(C)c34)(C1)C2; 80.3
Cc1nnc2sc3c(NCc4ccc(C(C)(C)O)c(Cl)c4)ncnc3c2c1C; 79.8
